Protein target, amino acids: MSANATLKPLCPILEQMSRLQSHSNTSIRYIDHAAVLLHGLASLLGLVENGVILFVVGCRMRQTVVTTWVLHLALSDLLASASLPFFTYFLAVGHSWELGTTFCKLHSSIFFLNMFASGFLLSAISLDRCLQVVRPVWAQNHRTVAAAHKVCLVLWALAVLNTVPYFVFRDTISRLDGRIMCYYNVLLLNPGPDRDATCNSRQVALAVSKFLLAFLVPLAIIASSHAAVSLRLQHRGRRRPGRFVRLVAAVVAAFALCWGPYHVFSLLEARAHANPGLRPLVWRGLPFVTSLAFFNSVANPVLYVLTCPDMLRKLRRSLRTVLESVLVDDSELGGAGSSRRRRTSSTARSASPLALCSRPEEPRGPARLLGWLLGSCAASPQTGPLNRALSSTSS
Give measured Ki for each item. Keep answers brief.

Q) Recorded Ki of Cc1ccc2c(c1)c(C1NS(=O)(=O)c3ccccc31)cn2CC(=O)O (stereo not drawn) [Example 2] , please.
A) < 10 µM

Q) Which Ki reading was recorded for the compound CCN1N=C(c2c(C)n(CC(=O)O)c3ccc(F)cc23)c2ccccc2S1(=O)=O [Example 91] ?
A) < 0.1 µM

Q) Given the entry Cc1ccc2c(c1)c(C1c3ccccc3S(=O)(=O)N1Cc1ccc(F)cc1)cn2CC(=O)O (stereo not drawn) [Example 49] , report its measured Ki.
A) < 1 µM

Q) Fill in the blank: the reported Ki of Cc1ccc2c(c1)c(C1c3ccccc3S(=O)(=O)N1CCCOCc1ccccc1)cn2CC(=O)O (stereo not drawn) [Example 50] is ____.
A) < 10 µM

Q) I would be grateful if you could share the reported Ki for Cc1c(-c2nn(Cc3ccccc3)c(=O)c3ccccc23)c2cc(Cl)ccc2n1CC(=O)O [Example 16] .
A) < 0.1 µM

Q) Recorded Ki of O=C(O)Cn1cc(C2c3ccccc3S(=O)(=O)N2Cc2cccc(Oc3ccc(F)cc3)c2)c2ccccc21 (stereo not drawn) [Example 31] , please.
A) < 1 µM

Q) Which Ki is reported for this compound? Cc1c(C2=NN(CCOc3ccc(Cl)cc3)S(=O)(=O)c3ccccc32)c2cc(F)ccc2n1CC(=O)O [Example 89]
A) < 1 µM

Q) Which measured Ki value corresponds to CCCCN1N=C(c2c(C)n(CC(=O)O)c3ccccc23)[C@H]2CC=CC[C@H]2C1=O (stereo in doubt) [Example 70] ?
A) < 1 µM

Q) Give its Ki value. Item: Cc1c(C2c3ccccc3S(=O)(=O)N2CCCOc2ccccc2)c2ccccc2n1CC(=O)O (stereo not drawn) [Example 46]
A) < 1 µM

Q) Request the reported Ki associated with Cc1c(C2c3ccccc3S(=O)(=O)N2CC2COc3ccccc3O2)c2ccccc2n1CC(=O)O (stereo not drawn) [Example 41]
A) < 1 µM

Q) Quick check: Ki of Cc1nc(CN2C(c3c(C)n(CC(=O)O)c4ccccc34)c3ccccc3S2(=O)=O)cs1 (stereo not drawn) [Example 42] ?
A) < 1 µM

Q) What does the data say about its Ki? Entry: Cc1c(-c2nn(CC3COc4ccccc4O3)c(=O)c3ccccc23)c2cc(Cl)ccc2n1CC(=O)O (stereo not drawn) [Example 27]
A) < 0.1 µM

Q) Item under review: COc1ccc2c(c1)c(C1NS(=O)(=O)c3ccccc31)cn2CC(=O)O (stereo not drawn) [Example 4] . Reported Ki?
A) < 10 µM

Q) Data request, read-out Ki, for Cc1c(C2c3ccccc3S(=O)(=O)N2CCOc2ccc(Cl)cc2)c2ccccc2n1CC(=O)O (stereo not drawn) [Example 39]
A) < 0.1 µM

Q) Requested read-out: Ki. Entry: Cc1c(C2=NN(Cc3ccccc3Cl)S(=O)(=O)c3ccccc32)c2cc(F)ccc2n1CC(=O)O [Example 76]
A) < 0.1 µM

Q) // query Ki value for entry Cc1c(-c2nn(Cc3nc4ccccc4s3)c(=O)c3ccccc23)c2cc(Cl)ccc2n1CC(=O)O [Example 26]
A) < 0.1 µM

Q) Please look up its Ki: Cc1ccc2c(c1)c(C1NS(=O)(=O)c3ccccc31)c(C)n2CC(=O)O (stereo not drawn) [Example 7]
A) < 10 µM

Q) For O=C(O)Cn1cc(C2c3ccccc3S(=O)(=O)N2Cc2csc(-c3ccc(Cl)cc3)n2)c2ccccc21 (stereo not drawn) [Example 34] , what is its reported Ki?
A) < 1 µM

Q) # Ki lookup, item Cc1c(C2NS(=O)(=O)c3ccccc32)c2cc(Cl)ccc2n1CC(=O)O (stereo not drawn) [Example 6]
A) < 1 µM

Q) Requested field: Ki. Item: CCOC(=O)CN1C(c2c(C)n(CC(=O)O)c3ccc(Cl)cc23)c2ccccc2S1(=O)=O (stereo not drawn) [Example 59]
A) < 0.1 µM

Q) Which value of Ki has been reported for C=CCN1C(c2c(C)n(CC(=O)O)c3ccccc23)c2ccccc2S1(=O)=O (stereo not drawn) [Example 45] in the records?
A) < 1 µM

Q) Quick one: Ki of COc1cccc(CN2N=C(c3c(C)n(CC(=O)O)c4ccc(F)cc34)c3ccccc3S2(=O)=O)c1 [Example 79] ?
A) < 1 µM

Q) // query Ki value for entry Cc1c(C2=NN(CCc3ccccc3)S(=O)(=O)c3ccccc32)c2cc(F)ccc2n1CC(=O)O [Example 87]
A) < 1 µM

Q) For the compound Cc1c(C2=NN(CCc3ccccc3)S(=O)(=O)c3ccccc32)c2ccccc2n1CC(=O)O [Example 19] , what Ki is on record?
A) < 0.1 µM

Q) // lookup Ki for CC(C)CCN1C(c2cn(CC(=O)O)c3ccccc23)c2ccccc2S1(=O)=O (stereo not drawn) [Example 29]
A) < 10 µM

Q) Entry under review: Cc1noc(C)c1CN1C(=O)c2ccccc2C1c1cn(CC(=O)O)c2ccccc12 (stereo not drawn) [Example 22] . Reported Ki?
A) < 1 µM

Q) // lookup Ki for N#Cc1ccc2c(c1)c(C1NS(=O)(=O)c3ccccc31)cn2CC(=O)O (stereo not drawn) [Example 9]
A) < 10 µM
